target: KiSS-1 receptor (Rattus norvegicus, UniProt Q924U1); experiment: Agonist activity at rat KISS1R expressed in CHO/dhfr cells assessed as increase in intracellular Ca2+ levels measured for 180 secs by Fluo 3-AM dye based FLIPR assay; assay type: functional, cell-based
Sequence (Q924U1 whole entry): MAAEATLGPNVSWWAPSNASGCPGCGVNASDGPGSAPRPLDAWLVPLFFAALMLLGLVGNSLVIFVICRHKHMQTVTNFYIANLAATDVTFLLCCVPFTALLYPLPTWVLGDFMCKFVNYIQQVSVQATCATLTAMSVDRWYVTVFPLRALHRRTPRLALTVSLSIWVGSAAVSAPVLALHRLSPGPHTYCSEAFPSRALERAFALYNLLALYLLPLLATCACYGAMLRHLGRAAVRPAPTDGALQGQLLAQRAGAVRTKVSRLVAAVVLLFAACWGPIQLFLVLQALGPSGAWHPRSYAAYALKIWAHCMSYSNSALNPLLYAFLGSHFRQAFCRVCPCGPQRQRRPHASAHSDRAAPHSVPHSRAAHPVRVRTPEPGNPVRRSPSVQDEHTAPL
Where a SMILES comes first, the peptide text is derived from it. [ ]: non-standard residue; d: D form. Phe(4-Cl) = N[C@@H](Cc1ccc(Cl)cc1)C(=O)O; Phe(3-F) = N[C@@H](Cc1cccc(F)c1)C(=O)O; Arg(Me) = CNC(=N)NCCC[C@H](N)C(=O)O; azaGly = NNC(=O)O
endpoint: pEC50
Value format note: pEC50 is -log10 of concentration (mol/L); just state the number.

Please review the entries below; each comes with its answer.
[[record]]
molecule = "CNC(=N)NCCC[C@H](NC(=O)[C@H](CC(C)C)NC(=O)NNC(=O)[C@H](Cc1cccc(F)c1)NC(=O)[C@@H](NC(=O)[C@H](CC(N)=O)NC(=O)[C@H](CCC(=O)O)NC(=O)[C@@H](Cc1ccc(O)cc1)NC(C)=O)[C@@H](C)O)C(=O)N[C@@H](Cc1c[nH]c2ccccc12)C(N)=O (Ac-[dY]ENT[Phe(3-F)][azaGly]L[Arg(Me)]W-NH2)"
endpoint = "pEC50"
result_number = 7.70

[[record]]
molecule = "CNC(=N)NCCC[C@H](NC(=O)[C@H](CC(C)C)NC(=O)NNC(=O)[C@H](Cc1ccc(F)cc1)NC(=O)[C@@H](NC(=O)[C@H](CC(N)=O)NC(=O)[C@@H](Cc1c[nH]c2ccccc12)NC(=O)[C@@H](Cc1ccc(O)cc1)NC(C)=O)[C@@H](C)O)C(=O)N[C@@H](Cc1c[nH]c2ccccc12)C(N)=O"
endpoint = "pEC50"
result_number = 8.33


The molecule CNC(=N)NCCC[C@H](NC(=O)[C@H](CC(C)C)NC(=O)NNC(=O)[C@H](Cc1ccc(Cl)cc1)NC(=O)[C@@H](NC(=O)[C@H](CC(N)=O)NC(=O)[C@@H](Cc1c[nH]c2ccccc12)NC(=O)[C@@H](Cc1ccc(O)cc1)NC(C)=O)[C@@H](C)O)C(=O)N[C@@H](Cc1c[nH]c2ccccc12)C(N)=O (Ac-[dY][dW]NT[Phe(4-Cl)][azaGly]L[Arg(Me)]W-NH2) showed pEC50 equal to 8.55

---

molecular target: KiSS-1 receptor (Homo sapiens, UniProt Q969F8); test: Agonist activity at human KISS1R expressed in CHO/dhfr cells assessed as increase in intracellular Ca2+ levels measured for 180 secs by Fluo 3-AM dye based FLIPR assay
Sequence (Q969F8 whole entry): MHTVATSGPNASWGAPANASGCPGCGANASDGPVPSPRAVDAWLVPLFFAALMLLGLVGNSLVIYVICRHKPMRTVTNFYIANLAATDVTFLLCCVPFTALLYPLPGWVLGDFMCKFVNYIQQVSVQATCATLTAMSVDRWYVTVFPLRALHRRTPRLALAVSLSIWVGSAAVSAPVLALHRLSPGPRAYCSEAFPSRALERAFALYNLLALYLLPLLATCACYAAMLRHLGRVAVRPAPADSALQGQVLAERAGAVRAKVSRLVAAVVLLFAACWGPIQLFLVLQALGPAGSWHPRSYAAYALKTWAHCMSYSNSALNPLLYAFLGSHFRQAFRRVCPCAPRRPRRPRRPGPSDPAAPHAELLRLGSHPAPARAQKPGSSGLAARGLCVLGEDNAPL
endpoint: EC50 (nM)

A. CNC(=N)NCCC[C@H](NC(=O)[C@H](CC(C)C)NC(=O)NNC(=O)[C@H](Cc1ccccc1)NC(=O)[C@@H](NC(=O)[C@H](CC(N)=O)NC(=O)[C@@H](C)NC(=O)[C@@H](Cc1ccc(O)cc1)NC(C)=O)[C@@H](C)O)C(=O)N[C@@H](Cc1c[nH]c2ccccc12)C(N)=O
B. CNC(=N)NCCC[C@H](NC(=O)[C@H](CC(C)C)NC(=O)NNC(=O)[C@H](Cc1ccccc1)NC(=O)[C@@H](NC(=O)[C@H](CC(N)=O)NC(=O)[C@H]1CCCN(C(=O)[C@@H](Cc2ccc(O)cc2)NC(C)=O)C1)[C@@H](C)O)C(=O)N[C@@H](Cc1c[nH]c2ccccc12)C(N)=O
Which is greater in EC50, the first item A or the second item B ? Reply with the label of the item you choose.
B
(B: 5.5 nM, A: 2.7 nM)
